System: SK-BR-3
Experiment: Cytotoxicity against human SKBR3 cells incubated for 72 hrs by MTT assay
Format: functional, cell-based
Settings: SK-BR-3, 72 h
Readout kind: IC50

- Test smiles: "CN(C)CCCNc1c(C(=O)NCc2ccc(F)cc2)nc(Br)c2cccnc12"
  Test value: "1 µM"

[ask] Fill in IC50 for record `NCCCCCCNc1c(C(=O)NCc2ccc(F)cc2)nc(Br)c2cccnc12`
[reply] 3 µM

[ask] Fill in IC50 for record `NCCCNc1c(C(=O)NCc2ccc(F)cc2)ncc2cccnc12`
[reply] > 10 µM

----------
Test system: MDA-MB-435
Experiment: Cytotoxicity against human MDA-MB-435 cells incubated for 72 hrs by MTT assay
Type: functional, cell-based
Settings: MDA-MB-435, 72 h
Readout kind: pIC50
On this scale, pIC50 is minus log10 of a concentration expressed in M (mol/L).

- Test smiles: "NCCNc1c(C(=O)NCc2ccc(F)cc2)nc(Br)c2cccnc12"
  pIC50: 4.92

[ask] Fill in pIC50 for record `N[C@H]1CC[C@H](Nc2c(C(=O)NCc3ccc(F)cc3)nc(N3CCCCS3(=O)=O)c3cccnc23)CC1`
[reply] 5.30
